- assay_procedure: Primary qHTS for inhibitors of nuclear receptor binding SET domain protein 2 (NSD2) in an RCH-ACV wild type WT cells (2C) (AID 1645877); further: nearly all actives have a fitted effect of over 70% in size; further: potency means the concentration at half of the fitted maximal effect
- assay_context: RCH-ACV (leukaemia line) NSD2 WT (2C) viability, CellTiter-Glo, 72 h; series mostly up to 44.9 µM
Results filed as inconclusive are left out. The source made the active and inactive calls. The call rests on the fitted dose curve; in most records, active means well fitted inhibition curve with a large enough effect; inconclusive means small, poorly fitted or top-dose-only effect; inactive means no such curve, though single readings can be large or run the other way.
measurement_type: Potency

• CCC(=O)O[C@]1(C(=O)COC)[C@@H](C)C[C@H]2[C@@H]3CCC4=CC(=O)C=C[C@]4(C)C3(F)[C@@H](O)C[C@@]21C (stereo partly specified) = 3.3 nM (active)
• Nc1ccc([N+](=O)[O-])c(C(F)(F)F)c1 = inactive
• C=C(C)C(=O)OCC(O)CO (stereo unspecified) = inactive
• CC(C)(C)C(O)/C=C/c1ccc2c(c1)OCO2 (stereo unspecified) = inactive
• CC(=O)N(CC(=O)N(C)C)c1ccccc1 = inactive

Kindly give each listed record's Potency.
1. Nc1ccc(C(=O)N2CC3CC(CN(Cc4ccccc4)C3)C2)cc1
2. O=C(O)CCCC[C@@H]1SC[C@@H]2NC(=O)N[C@@H]21
3. CN1Cc2cc(C(=O)N3CCC(C4CCNCC4)CC3)ccc2NC(CC(=O)O)C1=O (stereo unspecified)

["inactive", "inactive", "inactive"]

Kindly give each listed record's Potency.
1. Cc1nc(N)nc(N)c1-c1ccc(Cl)c(Cl)c1
2. CC(C)NC(=O)c1ccc(C=O)cc1
3. CCCCC/C=C\C/C=C\CCCCCCCC(=O)NC(C)c1ccccc1 (stereo unspecified)

299 nM (active)
inactive
16800 nM (active)
